System: HUVEC/MSC spheroids viability
Protocol description: Human HUVEC/MSC cell line growth inhibition [KRAS2];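 note: percent of DMSO vehicle control luminescence so 100% = untreated viability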
Recorded conditions: second compound 0.0316 µM; first compound 0.003 µM; active compounds read low
Reported endpoint: viability, T/C (%)
Kindly answer with a numeric value in %, unit omitted.

{"Compound": "CC(=O)Nc1cccc(-n2c(=O)n(C3CC3)c(=O)c3c(Nc4ccc(I)cc4F)n(C)c(=O)c(C)c32)c1 + CNCc1ccccc1-c1csc(C(C)Nc2nc(C)nc3cc(OC)c(OC)cc23)c1", "viability, T/C [%]": 83.6}
{"Compound": "CC(=O)Nc1cccc(-n2c(=O)n(C3CC3)c(=O)c3c(Nc4ccc(I)cc4F)n(C)c(=O)c(C)c32)c1 + C=CC(=O)N1CCN(c2nc(=O)n(-c3c(C)ccnc3C(C)C)c3nc(-c4c(O)cccc4F)c(F)cc23)C(C)C1", "viability, T/C [%]": 114}
{"Compound": "CC(=O)Nc1cccc(-n2c(=O)n(C3CC3)c(=O)c3c(Nc4ccc(I)cc4F)n(C)c(=O)c(C)c32)c1 + COc1cc2nc(C)nc(NC(C)c3cc(N)cc(C(F)(F)F)c3)c2cc1OC1CCOC1", "viability, T/C [%]": 92.6}

We next turn to a different compound, shown below.
query: Quick one: viability, T/C of CC(=O)Nc1cccc(-n2c(=O)n(C3CC3)c(=O)c3c(Nc4ccc(I)cc4F)n(C)c(=O)c(C)c32)c1 + CC1OCC2(CCN(c3cnc(Sc4ccnc(N)c4Cl)c(N)n3)CC2)C1N ?
result: 118

====

Tested on: HUVEC/MSC spheroids viability
Protocol description: Human HUVEC/MSC cell line growth inhibition [KRAS2];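 note: percent of DMSO vehicle control luminescence so 100% = untreated viability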
Recorded conditions: second compound 0.316 µM; first compound 1 µM; active compounds read low
Reported endpoint: viability, T/C (%)
// return numeric value only (unit: %, not printed)

# annotated cases, reported viability, T/C shown
{"Compound": "CC1(C)CCC(CN2CCN(c3ccc(C(=O)NS(=O)(=O)c4ccc(NCC5CCOCC5)c([N+](=O)[O-])c4)c(Oc4cnc5[nH]ccc5c4)c3)CC2)=C(c2ccc(Cl)cc2)C1 + CC1OCC2(CCN(c3cnc(Sc4ccnc(N)c4Cl)c(N)n3)CC2)C1N", "viability, T/C [%]": 110}
{"Compound": "COc1cc(Nc2ncc3c(n2)-c2ccc(Cl)cc2C(c2c(F)cccc2OC)=NC3)ccc1C(=O)O + CC1OCC2(CCN(c3cnc(Sc4ccnc(N)c4Cl)c(N)n3)CC2)C1N", "viability, T/C [%]": 101}
{"Compound": "Cn1nccc1Nc1nccc(-c2cc3c(s2)C(C)(C)N(CCN2CCOCC2)C3=O)n1 + CNCc1ccccc1-c1csc(C(C)Nc2nc(C)nc3cc(OC)c(OC)cc23)c1", "viability, T/C [%]": 111}
{"Compound": "O=C(c1cc(Cc2n[nH]c(=O)c3ccccc23)ccc1F)N1CCN(C(=O)C2CC2)CC1 + C=CC(=O)N1CCN(c2nc(=O)n(-c3c(C)ccnc3C(C)C)c3nc(-c4c(O)cccc4F)c(F)cc23)C(C)C1", "viability, T/C [%]": 114}

query: What does the record list as viability, T/C for CCNC(=O)CC1N=C(c2ccc(Cl)cc2)c2cc(OC)ccc2-n2c(C)nnc21 (stereo unspecified) + COc1cc2nc(C)nc(NC(C)c3cc(N)cc(C(F)(F)F)c3)c2cc1OC1CCOC1 ?
result: 99.6

query: What about CCNC(=O)CC1N=C(c2ccc(Cl)cc2)c2cc(OC)ccc2-n2c(C)nnc21 (stereo unspecified) + CNCc1ccccc1-c1csc(C(C)Nc2nc(C)nc3cc(OC)c(OC)cc23)c1 ?
result: 109

query: Now give it for O=C(c1cc(Cc2n[nH]c(=O)c3ccccc23)ccc1F)N1CCN(C(=O)C2CC2)CC1 + CNCc1ccccc1-c1csc(C(C)Nc2nc(C)nc3cc(OC)c(OC)cc23)c1 too.
result: 92.3

query: # iterate: Cn1nccc1Nc1nccc(-c2cc3c(s2)C(C)(C)N(CCN2CCOCC2)C3=O)n1 + COc1cc2nc(C)nc(NC(C)c3cc(N)cc(C(F)(F)F)c3)c2cc1OC1CCOC1
result: 95

query: Then what about the compound COC(=O)c1ccc2c(C(=Nc3ccc(N(C)C(=O)CN4CCN(C)CC4)cc3)c3ccccc3)c(O)[nH]c2c1 + CNCc1ccccc1-c1csc(C(C)Nc2nc(C)nc3cc(OC)c(OC)cc23)c1 ?
result: 53.1

query: How about this compound: CCN1CCN(Cc2ccc(Nc3ncc(F)c(-c4cc(F)c5nc(C)n(C(C)C)c5c4)n3)nc2)CC1 + CNCc1ccccc1-c1csc(C(C)Nc2nc(C)nc3cc(OC)c(OC)cc23)c1
result: 113

query: Moving on to Cn1nccc1Nc1nccc(-c2cc3c(s2)C(C)(C)N(CCN2CCOCC2)C3=O)n1 + CC1OCC2(CCN(c3cnc(Sc4ccnc(N)c4Cl)c(N)n3)CC2)C1N
result: 78.8

query: Follow-up entry: CC1(C)CCC(CN2CCN(c3ccc(C(=O)NS(=O)(=O)c4ccc(NCC5CCOCC5)c([N+](=O)[O-])c4)c(Oc4cnc5[nH]ccc5c4)c3)CC2)=C(c2ccc(Cl)cc2)C1 + COc1cc2nc(C)nc(NC(C)c3cc(N)cc(C(F)(F)F)c3)c2cc1OC1CCOC1
result: 81.5

query: // next record COc1cc(Nc2ncc3c(n2)-c2ccc(Cl)cc2C(c2c(F)cccc2OC)=NC3)ccc1C(=O)O + CNCc1ccccc1-c1csc(C(C)Nc2nc(C)nc3cc(OC)c(OC)cc23)c1
result: 73.3
